Tested on: SK-OV-3 ovarian
Measurement Notes: NCI tumour cell line growth inhibition, 48 h
Entries and their measured GI50 follow.
Endpoint Name: GI50

1) O=C(Nc1cccc(C(F)(F)F)c1)Nc1cc(S(=O)(=O)NC2CC2)ccc1-c1ccsc1 ... 4.39 µM
2) O=C(/C=C/N1CCN(c2cccc(Cl)c2)CC1)c1ccc(Cl)cc1 ... 50.9 µM
3) ClCc1ccc(Cn2cnc3nc(Cl)nc(Cl)c32)cc1 ... 2.36 µM
4) CN(C)C(=O)c1cc2cnc(Nc3ccc(N4CCNCC4)cn3)nc2n1C1CCCC1 ... 34.8 µM
5) Cc1c(N)nc(C2CC(=O)N2CC(N)C(N)=O)nc1C(=O)NC(C(=O)NC(C)C(O)C(C)C(=O)NC(C(=O)NCCc1nc(-c2nc(C(=O)NCCNCC(C)O)cs2)cs1)C(C)O)C(OC1OC(CO)C(O)C(O)C1OC1OC(CO)C(O)C(OC(N)=O)C1O)c1cnc[nH]1 (stereo not given) ... 10.6 µM

###

Entries and their measured TGI follow.
Test system: SK-MEL-28 melanoma
Measurement Notes: NCI tumour cell line growth inhibition, 48 h
Endpoint Name: TGI (µM)

1) CC(=O)Nc1ccc(C(=O)COc2cccc(/C=C3\CCc4ccccc4C3=O)c2)cc1 ... 37.8
2) COC(=O)c1ccccc1NCc1cc(O)ccc1O ... 35.4
3) O=C1c2sccc2C(=O)c2c(CO)csc21 ... 38.3
4) Nc1ccc2ncc(Nc3ccc(Cl)c(Cl)c3)nc2c1 ... 84.1
5) CS(=O)(=O)Nc1ccc(Nc2c3ccccc3nc3cc(Cl)ccc23)cc1 ... 19.2
6) Brc1ccc2c(c1)-c1ccccc1C1=NCCN12 ... 3.63
7) COc1ccc(Sc2ccccc2[N+](=O)[O-])cc1 ... 46.4
8) Clc1ccc(N=CNc2ccc(-c3nc4ccccc4[nH]3)cc2)cc1 ... 63.6
9) Cn1nc(-c2ccccc2)c(C(=O)/C=C/c2ccccc2)c(N2CCCC2)c1=O ... 32.8
10) Nn1c(=S)[nH]nc(/C=C/c2c(O)ccc3ccccc23)c1=O ... 73.5
11) CCOC(=O)C(NC(=O)c1cccc(Cl)c1)(N1CCN(c2cc3c(cc2F)c(=O)c(C(=O)O)cn3CC)CC1)C(F)(F)F (stereo unspecified) ... 33.9
12) CC(=O)Oc1cc(OC(C)=O)c2c(c1C)CC[C@@H]1[C@@H]2CC[C@]2(C)[C@@H](OC(C)=O)CC[C@@H]12 ... 33
13) COc1c(-c2nc3nc(N4CCN(C)CC4)ccc3[nH]2)cc(OC)c2c1nc(CCl)n2C ... 71.7
14) CCN(CCCl)c1ccc(NC(=O)c2cc(C(=O)NCCN(C)C)cc(C(=O)Nc3ccc(N(CC)CCCl)cc3)c2)cc1 ... 41.4
15) O=C(COC(=O)[C@H](C[Se][Se]C[C@H](NC(=O)c1ccc(Br)cc1F)C(=O)OCC(=O)c1ccc(F)cc1)NC(=O)c1ccc(Br)cc1F)c1ccc(F)cc1 ... 1.63
16) CCC(=C(c1ccc(OCCN(CC)CC)cc1)c1ccc(OCCN(CC)CC)cc1)c1ccc(Cl)cc1 ... 1.09
17) Cc1c(-c2ccc(N3CCc4cccc(C(=O)Nc5nc6ccccc6s5)c4C3)nc2C(=O)O)cnn1CC12CC3CC(CC(C3)C1)C2 ... 19.3
